B1: glmS ribozyme (parent)
chain: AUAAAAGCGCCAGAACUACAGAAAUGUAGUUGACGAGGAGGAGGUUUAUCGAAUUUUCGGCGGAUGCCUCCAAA

# Variants of: B1
# method-summary: self-cleavage kobs at 640 uM GlcN6P; higher = faster cleavage; RNA array
# condition: with glucosamine-6-phosphate
Fewer inactive variants are shown than the library holds.
quantity-measured: self-cleavage kobs at 640 uM GlcN6P

variant	self-cleavage kobs at 640 uM GlcN6P
U30C C34A A36G A52U	< 1e-05 s⁻¹
C34A U49C	< 1e-05 s⁻¹
A14G A33C U46G C58U G59U	< 1e-05 s⁻¹

Tell me the measured self-cleavage kobs at 640 uM GlcN6P of G32C C61G , please.
< 1e-05 s⁻¹

Tell me the measured self-cleavage kobs at 640 uM GlcN6P of G44C G60C , please.
< 1e-05 s⁻¹

Tell me the measured self-cleavage kobs at 640 uM GlcN6P of A14G A42G G59C , please.
< 1e-05 s⁻¹

Tell me the measured self-cleavage kobs at 640 uM GlcN6P of A36C G41A U45G A52U , please.
< 1e-05 s⁻¹

Tell me the measured self-cleavage kobs at 640 uM GlcN6P of C11U A33C U55G C58U , please.
< 1e-05 s⁻¹

Tell me the measured self-cleavage kobs at 640 uM GlcN6P of C8A A14G G29A A36U , please.
< 1e-05 s⁻¹

Tell me the measured self-cleavage kobs at 640 uM GlcN6P of G13U A48C G59U G66U , please.
< 1e-05 s⁻¹
